Biological target: GluA1o-γ8 (GRIA1o-CACNG8 fusion construct) (Homo sapiens (Human), UniProt P42261+Q8WXS5)
Sequence (P42261 other isoform, or with tags, fused parts or gaps): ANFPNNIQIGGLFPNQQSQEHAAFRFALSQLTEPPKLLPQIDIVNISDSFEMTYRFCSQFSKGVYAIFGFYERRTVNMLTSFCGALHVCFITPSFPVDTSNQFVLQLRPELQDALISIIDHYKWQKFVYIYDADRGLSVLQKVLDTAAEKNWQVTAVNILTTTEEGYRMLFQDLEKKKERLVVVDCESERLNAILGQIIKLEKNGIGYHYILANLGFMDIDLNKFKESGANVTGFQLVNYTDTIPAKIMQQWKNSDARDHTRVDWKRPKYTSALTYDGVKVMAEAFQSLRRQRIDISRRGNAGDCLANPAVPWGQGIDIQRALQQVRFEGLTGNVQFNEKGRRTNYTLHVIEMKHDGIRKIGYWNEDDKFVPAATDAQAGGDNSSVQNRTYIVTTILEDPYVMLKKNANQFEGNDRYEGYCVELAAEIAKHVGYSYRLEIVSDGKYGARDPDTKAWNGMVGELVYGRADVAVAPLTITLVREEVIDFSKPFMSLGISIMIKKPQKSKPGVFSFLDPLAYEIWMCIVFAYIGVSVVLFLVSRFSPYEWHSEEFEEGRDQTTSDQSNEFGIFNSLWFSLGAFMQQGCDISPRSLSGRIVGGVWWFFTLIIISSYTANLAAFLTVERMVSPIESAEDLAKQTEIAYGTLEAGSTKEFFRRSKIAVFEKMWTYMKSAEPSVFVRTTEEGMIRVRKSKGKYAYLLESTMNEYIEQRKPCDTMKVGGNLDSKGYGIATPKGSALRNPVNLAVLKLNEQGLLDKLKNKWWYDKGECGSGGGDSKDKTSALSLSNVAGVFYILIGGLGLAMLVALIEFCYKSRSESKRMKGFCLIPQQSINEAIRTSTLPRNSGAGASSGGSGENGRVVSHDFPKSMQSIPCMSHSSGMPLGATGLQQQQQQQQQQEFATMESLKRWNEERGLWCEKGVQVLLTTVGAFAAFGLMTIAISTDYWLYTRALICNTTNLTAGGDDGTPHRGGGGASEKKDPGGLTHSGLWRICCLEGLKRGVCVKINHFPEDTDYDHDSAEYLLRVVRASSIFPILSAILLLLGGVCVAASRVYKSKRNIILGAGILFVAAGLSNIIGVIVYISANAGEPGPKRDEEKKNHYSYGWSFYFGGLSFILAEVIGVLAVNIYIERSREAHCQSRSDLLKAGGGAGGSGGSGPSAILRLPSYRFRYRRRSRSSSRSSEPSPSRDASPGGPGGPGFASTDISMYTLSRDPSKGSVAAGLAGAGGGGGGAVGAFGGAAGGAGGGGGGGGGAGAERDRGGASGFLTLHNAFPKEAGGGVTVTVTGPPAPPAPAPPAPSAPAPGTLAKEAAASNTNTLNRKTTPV
Experiment: Calcium flux assay (FLIPR), inhibition of TARP γ8 dependent AMPA receptor activity
Settings: GluA1o-γ8 (GRIA1o-CACNG8 fusion) in HEK293 cells, calcium flux after 15 μM glutamate
endpoint_label: IC50 (nM)
Express the result in nM but write the number alone.

# IC50 of Fc1ccc(-c2nc3ccc(C(F)F)nc3n2-c2ccc3[nH]ncc3c2)cc1 [Example 322] = 0.0631

# IC50 of CC(F)(F)c1nc2ccc(C(F)F)nc2n1-c1ccc2c(c1)CC(=O)N2 [Example 154] = 5.01

Others:
# IC50 of Cc1ccc2cc(-c3ccc(F)cc3)n(-c3ccc4[nH]ccc4c3)c2n1 [Example 381] = 5.01

# IC50 of O=c1[nH]c2ccc(-n3c(C4CC4)nc4ccc(C(F)(F)F)nc43)cc2o1 [Example 107] = 15.8

# IC50 of CCOc1nc2ccc(C(F)(F)F)nc2n1-c1ccc2[nH]ncc2c1 [Example 114] = 12.6

# IC50 of CC[C@H](C)c1nc2ccc(C(F)(F)F)nc2n1-c1cc(C)c2[nH]ncc2c1 (single isomer, unassigned) [Example 407] = 0.1

# IC50 of CC(C)c1nc2ccc(C(F)(F)F)nc2n1-c1ccc2[nH]c(=O)sc2c1 [Example 45] = 0.398

# IC50 of O=C1Cc2ccc(-n3c(C4CC4)nc4ccc(C(F)(F)F)nc43)cc2N1 [Example 297] = 1000

* * *

Target: GluA1o-γ8 (GRIA1o-CACNG8 fusion construct) (Homo sapiens (Human), UniProt P42261+Q8WXS5)
Assay: Calcium flux assay (FLIPR), inhibition of TARP γ8 dependent AMPA receptor activity
Conditions: GluA1o-γ8 (GRIA1o-CACNG8 fusion) in HEK293 cells, calcium flux after 15 μM glutamate
With a cut-off of 10 nM, any IC50 strictly below it is called Yes; any IC50 meeting it or above is called No.

Some solved entries appear below for comparison.
Query :: Report whether reported IC50 is lower than 10 nM (strictly) for Cc1cc(-n2c(C(C)(C)F)nc3ccc(C(F)(F)F)nc32)cc2cn[nH]c12
Result :: Yes

Query :: Report whether reported IC50 is lower than 10 nM (strictly) for Cc1ccc2cc(C(C)C)n(-c3cc(F)c4c(c3)CC(=O)N4)c2n1
Result :: Yes

Query :: Report whether reported IC50 is lower than 10 nM (strictly) for FC(F)(F)c1ccc2nc(C3CCCC3)n(-c3ccc4[nH]ncc4c3)c2n1
Result :: Yes

Query :: Report whether reported IC50 is lower than 10 nM (strictly) for O=C1Cc2cc(-n3c(-c4ccc(F)cc4)nc4c(N5CCOCC5)ccnc43)ccc2N1
Result :: Yes

Others:
Query :: Report whether reported IC50 is lower than 10 nM (strictly) for Cc1cc(-n2c(C(C)C)nc3ccc(C(F)F)nc32)cc2cn[nH]c12
Result :: Yes

Query :: Report whether reported IC50 is lower than 10 nM (strictly) for CCCc1cc(-n2c(C(F)(F)F)nc3ccc(C(F)(F)F)nc32)cc2cn[nH]c12
Result :: Yes

Query :: Report whether reported IC50 is lower than 10 nM (strictly) for CC[C@@H](C)c1nc2ccc(C(F)(F)F)nc2n1-c1ccc2[nH]ncc2c1
Result :: Yes

Taken from patent US11312712B2.
